Assayed Target: T1, human VLA4-Fc (alpha4-Fc/beta1-Fc heterodimer) (human)
T1 construct: Soluble heterodimer from CHO cells, Protein A purified; also called VLA-Fc
T1 sequence (chain, as listed by the source limits assumed, form in doubt, chain 1 of 2): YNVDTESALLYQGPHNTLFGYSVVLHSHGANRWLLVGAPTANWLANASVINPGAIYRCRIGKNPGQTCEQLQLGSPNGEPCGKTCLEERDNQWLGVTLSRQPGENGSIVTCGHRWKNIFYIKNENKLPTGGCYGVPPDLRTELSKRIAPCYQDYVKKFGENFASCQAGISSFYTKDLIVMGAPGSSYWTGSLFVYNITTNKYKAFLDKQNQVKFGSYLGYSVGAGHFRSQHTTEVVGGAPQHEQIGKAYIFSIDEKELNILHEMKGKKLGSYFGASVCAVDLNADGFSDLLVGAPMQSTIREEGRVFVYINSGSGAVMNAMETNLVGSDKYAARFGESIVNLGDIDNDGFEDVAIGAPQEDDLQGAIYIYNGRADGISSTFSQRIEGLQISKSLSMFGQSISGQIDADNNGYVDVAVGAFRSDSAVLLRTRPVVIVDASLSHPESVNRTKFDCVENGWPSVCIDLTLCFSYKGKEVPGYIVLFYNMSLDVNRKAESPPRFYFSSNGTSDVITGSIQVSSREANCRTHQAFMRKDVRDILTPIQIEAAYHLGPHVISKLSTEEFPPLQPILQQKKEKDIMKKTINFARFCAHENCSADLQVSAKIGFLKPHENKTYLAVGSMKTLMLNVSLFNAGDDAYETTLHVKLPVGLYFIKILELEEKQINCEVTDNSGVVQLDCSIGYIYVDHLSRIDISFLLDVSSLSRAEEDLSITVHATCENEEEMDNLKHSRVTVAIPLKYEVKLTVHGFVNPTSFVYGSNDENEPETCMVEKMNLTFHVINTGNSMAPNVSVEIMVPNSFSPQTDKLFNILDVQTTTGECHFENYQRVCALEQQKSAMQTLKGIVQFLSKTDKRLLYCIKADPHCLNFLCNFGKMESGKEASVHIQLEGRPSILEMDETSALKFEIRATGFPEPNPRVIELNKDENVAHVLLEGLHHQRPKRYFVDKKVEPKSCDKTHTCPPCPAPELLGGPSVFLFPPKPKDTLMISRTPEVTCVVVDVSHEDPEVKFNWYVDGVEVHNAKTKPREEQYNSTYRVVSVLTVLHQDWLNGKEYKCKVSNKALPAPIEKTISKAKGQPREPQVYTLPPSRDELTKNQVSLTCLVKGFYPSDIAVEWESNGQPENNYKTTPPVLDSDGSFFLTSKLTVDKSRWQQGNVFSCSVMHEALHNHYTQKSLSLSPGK
T1 sequence (chain, as listed by the source limits assumed, form in doubt, chain 2 of 2): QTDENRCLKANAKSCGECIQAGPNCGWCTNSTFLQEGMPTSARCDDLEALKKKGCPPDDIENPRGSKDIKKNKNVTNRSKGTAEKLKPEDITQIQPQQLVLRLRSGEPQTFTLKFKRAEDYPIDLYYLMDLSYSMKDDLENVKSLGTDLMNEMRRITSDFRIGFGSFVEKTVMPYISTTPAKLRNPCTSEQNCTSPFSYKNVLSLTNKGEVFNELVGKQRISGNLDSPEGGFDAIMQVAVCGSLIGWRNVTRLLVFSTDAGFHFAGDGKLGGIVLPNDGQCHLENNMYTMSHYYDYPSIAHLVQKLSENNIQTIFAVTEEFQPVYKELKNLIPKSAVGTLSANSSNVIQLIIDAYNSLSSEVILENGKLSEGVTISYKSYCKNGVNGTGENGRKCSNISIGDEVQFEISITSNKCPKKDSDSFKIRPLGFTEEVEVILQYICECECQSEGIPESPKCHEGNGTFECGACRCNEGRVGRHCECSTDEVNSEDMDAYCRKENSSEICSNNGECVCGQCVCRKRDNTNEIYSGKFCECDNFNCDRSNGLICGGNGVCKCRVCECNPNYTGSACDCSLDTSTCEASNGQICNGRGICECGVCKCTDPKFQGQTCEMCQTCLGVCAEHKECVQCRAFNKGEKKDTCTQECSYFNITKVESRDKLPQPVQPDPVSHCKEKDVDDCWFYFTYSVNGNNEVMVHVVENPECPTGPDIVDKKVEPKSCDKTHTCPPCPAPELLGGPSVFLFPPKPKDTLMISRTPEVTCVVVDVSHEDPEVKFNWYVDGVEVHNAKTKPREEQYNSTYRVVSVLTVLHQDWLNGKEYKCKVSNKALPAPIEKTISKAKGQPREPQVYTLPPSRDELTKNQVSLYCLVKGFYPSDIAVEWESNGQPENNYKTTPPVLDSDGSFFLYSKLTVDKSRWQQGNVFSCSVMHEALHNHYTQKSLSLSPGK
Assay Explanation: ELISA, VLA4-Fc coated, 1 mM MnCl2; from EC50 values
Catalogue of binders with associated fold-improvement in binding relative to Q38L-2D-VCAM-1
Just the number please, in fold, no unit attached.

A selection of reference data follows.
>  <Binder>
2D-VCAM-1 variant Clone 47 (ligand, also called Clone 047; not shown: His tag) FKIETTPESRYLAQIGDSVSLTCSTTGCESPFFSWRPLLDSPLNGKVTNEGTTSTLTMNPVSFGNEHSYLCTATCESRKLEKGIQVEIYSFPKDPEIHLSGPLEAGKPITVKCSVADVYPFDRLEIDLLKGDHLMKSQEFLEDADRKSLETKSLEVTFTPVIEDIGKVLVCRAKLHIDEMDSVPTVRQAVKELQVYISP

>  <Numeric Readout>
16

$$$$
>  <Binder>
2D-VCAM-1 variant Clone 46 (ligand, also called Clone 046; not shown: His tag) FKIETTPESRYLAQIGDSVSLTCSTTGCESPFFSWRPQLDAPLNGKVTNEGTTSTLTMNPVSFGNEHSYLCTATCESRKLEKGIQVEIYSFPKDPEIHLSGPLEAGKPITVKCSVADVYPFDRLEIDLLKGDHLMKSQEFLEDADRKSLETKSLEVTFTPVIEDIGKVLVCRAKLHIDEMDSVPTVRQAVKELQVYISP

>  <Numeric Readout>
21

$$$$

Shift focus to the following entry.
# fold-improvement in binding relative to Q38L-2D-VCAM-1 of 2D-VCAM-1 variant Clone 147 (ligand, not shown: His tag) FKIETTPESRYLAQIGDSVSLTCSTTGCESPSFYWRPLLDSPLNGKVTNEGTTSTLTMNPVSFGNEHSYLCTAACESRRLEKGIQVEIYSFPKDPEIHLSGPLEAGKPITVKCSVADVYPFDRLEIDLLKGDHLMKSQEFLEDADRKSLETKSLEVTFTPVIEDIGKVLVCRAKLHIDEMDSVPTVRQAVKELQVYISP = 11
